- TARGET: human GluN1/GluN2B (Homo sapiens, UniProt Q05586+Q13224)
- Sequence (Q13224 27-1484, other chains not shown): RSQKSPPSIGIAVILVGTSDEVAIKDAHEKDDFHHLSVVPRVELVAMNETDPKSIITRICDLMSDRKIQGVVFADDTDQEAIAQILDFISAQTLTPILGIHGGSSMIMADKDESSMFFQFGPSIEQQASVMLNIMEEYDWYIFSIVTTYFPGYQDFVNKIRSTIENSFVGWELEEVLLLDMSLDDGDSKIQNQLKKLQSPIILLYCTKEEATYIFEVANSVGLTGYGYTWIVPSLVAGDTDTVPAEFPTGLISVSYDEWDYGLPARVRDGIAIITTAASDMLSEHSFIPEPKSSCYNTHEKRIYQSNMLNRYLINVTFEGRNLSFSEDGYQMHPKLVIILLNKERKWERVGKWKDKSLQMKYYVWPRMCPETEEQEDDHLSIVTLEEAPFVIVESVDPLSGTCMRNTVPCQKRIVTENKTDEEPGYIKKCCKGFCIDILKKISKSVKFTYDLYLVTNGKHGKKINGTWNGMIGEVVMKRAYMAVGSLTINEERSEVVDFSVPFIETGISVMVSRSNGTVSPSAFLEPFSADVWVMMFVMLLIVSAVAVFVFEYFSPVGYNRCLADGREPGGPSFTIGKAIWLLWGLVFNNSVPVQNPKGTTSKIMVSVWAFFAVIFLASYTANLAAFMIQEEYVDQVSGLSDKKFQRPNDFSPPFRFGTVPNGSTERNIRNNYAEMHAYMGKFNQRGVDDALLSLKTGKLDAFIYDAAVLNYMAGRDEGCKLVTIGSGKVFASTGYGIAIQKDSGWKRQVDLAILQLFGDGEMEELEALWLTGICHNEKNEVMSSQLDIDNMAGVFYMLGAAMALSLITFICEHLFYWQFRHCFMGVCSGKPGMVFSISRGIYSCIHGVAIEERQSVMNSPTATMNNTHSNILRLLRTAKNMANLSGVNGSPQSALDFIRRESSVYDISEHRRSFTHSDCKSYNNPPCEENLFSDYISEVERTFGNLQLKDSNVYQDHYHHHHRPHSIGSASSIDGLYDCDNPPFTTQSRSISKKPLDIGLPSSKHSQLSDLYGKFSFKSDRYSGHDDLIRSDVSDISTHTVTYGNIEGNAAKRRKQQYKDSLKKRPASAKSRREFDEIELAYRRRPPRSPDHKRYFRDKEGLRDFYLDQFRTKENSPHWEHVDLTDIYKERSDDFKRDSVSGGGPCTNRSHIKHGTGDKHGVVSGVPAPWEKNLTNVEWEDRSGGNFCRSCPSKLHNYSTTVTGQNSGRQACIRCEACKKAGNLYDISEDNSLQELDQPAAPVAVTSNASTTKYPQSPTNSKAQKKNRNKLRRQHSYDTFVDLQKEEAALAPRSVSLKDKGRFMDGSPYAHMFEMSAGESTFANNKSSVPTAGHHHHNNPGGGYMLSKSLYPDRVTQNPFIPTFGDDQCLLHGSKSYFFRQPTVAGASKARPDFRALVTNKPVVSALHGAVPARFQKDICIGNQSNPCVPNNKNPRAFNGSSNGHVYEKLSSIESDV
- ASSAY SUMMARY: cell-based
pIC50: −log10 of the molar value.
ASSAY METRIC: pIC50

Input: Please supply the value of reported pIC50 for the item COc1ccc2nc(/C=C/c3cccc([N+](=O)[O-])c3)n(-c3ccc(C(=O)O)cc3)c(=O)c2c1
Output: < 4.00

* * *

- TARGET: rat GluN1/GluN2C (Rattus norvegicus, UniProt P35439+Q00961)
- Sequence (Q00961 20-1237, other chains not shown): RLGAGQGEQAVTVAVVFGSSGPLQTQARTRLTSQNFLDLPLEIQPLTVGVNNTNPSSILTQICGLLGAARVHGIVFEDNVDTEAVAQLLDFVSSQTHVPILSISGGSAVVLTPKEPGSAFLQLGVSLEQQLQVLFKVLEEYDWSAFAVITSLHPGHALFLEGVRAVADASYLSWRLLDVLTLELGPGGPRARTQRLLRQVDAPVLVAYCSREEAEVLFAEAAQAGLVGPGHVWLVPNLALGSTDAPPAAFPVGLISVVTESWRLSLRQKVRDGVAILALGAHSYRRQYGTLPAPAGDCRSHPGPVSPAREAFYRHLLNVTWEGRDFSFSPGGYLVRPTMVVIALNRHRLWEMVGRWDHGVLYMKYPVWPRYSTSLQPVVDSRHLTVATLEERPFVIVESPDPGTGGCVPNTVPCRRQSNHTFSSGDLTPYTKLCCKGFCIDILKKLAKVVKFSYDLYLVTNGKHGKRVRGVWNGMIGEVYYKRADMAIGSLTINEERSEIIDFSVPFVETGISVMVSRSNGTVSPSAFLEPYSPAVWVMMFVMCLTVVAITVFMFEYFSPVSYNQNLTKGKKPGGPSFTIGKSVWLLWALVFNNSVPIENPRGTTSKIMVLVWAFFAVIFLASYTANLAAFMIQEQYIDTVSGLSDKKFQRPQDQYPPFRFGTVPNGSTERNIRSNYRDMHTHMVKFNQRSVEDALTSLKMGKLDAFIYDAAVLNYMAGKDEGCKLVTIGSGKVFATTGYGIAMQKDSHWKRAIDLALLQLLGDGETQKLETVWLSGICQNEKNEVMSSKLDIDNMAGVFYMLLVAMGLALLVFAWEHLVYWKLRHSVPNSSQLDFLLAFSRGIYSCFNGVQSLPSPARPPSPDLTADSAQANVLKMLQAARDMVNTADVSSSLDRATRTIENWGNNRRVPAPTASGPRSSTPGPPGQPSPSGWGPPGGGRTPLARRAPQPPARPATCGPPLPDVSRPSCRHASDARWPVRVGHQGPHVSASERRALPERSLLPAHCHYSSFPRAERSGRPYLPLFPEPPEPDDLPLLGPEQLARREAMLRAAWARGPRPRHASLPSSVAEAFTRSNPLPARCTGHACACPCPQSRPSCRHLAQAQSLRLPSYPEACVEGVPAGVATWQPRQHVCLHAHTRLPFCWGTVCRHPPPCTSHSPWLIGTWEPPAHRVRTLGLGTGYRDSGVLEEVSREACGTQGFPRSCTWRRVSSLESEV
- RECORDED CONDITIONS: rat GluN1/GluN2C; continuous presence of 30 µM glycine; -40 mV
ASSAY METRIC: pEC50
The quantity pEC50 is defined as the negative base-10 logarithm of the molar concentration.

Input: Please supply the value of reported pEC50 for the item CN[C@H](CC(=O)O)C(=O)O [NMDA, N-methyl-D-aspartate]
Output: 4.72

* * *

- TARGET: rat GluN1/GluN2D (Rattus norvegicus, UniProt P35439+Q62645)
- RECORDED CONDITIONS: rat GluN1/GluN2D; continuous presence of 30 µM glycine; -40 mV
ASSAY METRIC: EC50 (µM)
Lab book: enter the figure in µM, no units written.

Input: Give EC50 for this entry on rat GluN1/GluN2D (Rattus norvegicus, UniProt P35439+Q62645): CN[C@H](CC(=O)O)C(=O)O [NMDA, N-methyl-D-aspartate]
Output: 7.9

* * *

- TARGET: human GluN1/GluN2B (Homo sapiens, UniProt Q05586+Q13224)
- ASSAY SUMMARY: cell-based
- Assay type: cell-based
- RECORDED CONDITIONS: human GluN1/GluN2B; continuous presence of 100 µM glutamate; -40 mV
ASSAY METRIC: pEC50
The quantity pEC50 is defined as the negative base-10 logarithm of the molar concentration.

Input: Please supply the value of reported pEC50 for the item NCC(=O)O
Output: 6.54

* * *

- TARGET: human GluN1/GluN2B (Homo sapiens, UniProt Q05586+Q13224)
- ASSAY SUMMARY: cell-based
- Format: cell-based
- RECORDED CONDITIONS: human GluN1/GluN2B; 100 µM glutamate plus 30 µM glycine; -40 mV
ASSAY METRIC: nH (Hill slope, inhibition)
Respond using a number only.

Input: Please supply the value of reported nH (Hill slope, inhibition) for the item OC(CN1CCC(Cc2ccc(F)cc2)CC1)c1ccc(Cl)cc1 (centres unmarked)
Output: 1.3

* * *

- TARGET: human GluN1/GluN2D (Homo sapiens, UniProt O15399+Q05586)
- Sequence (O15399 28-1336, other chains not shown): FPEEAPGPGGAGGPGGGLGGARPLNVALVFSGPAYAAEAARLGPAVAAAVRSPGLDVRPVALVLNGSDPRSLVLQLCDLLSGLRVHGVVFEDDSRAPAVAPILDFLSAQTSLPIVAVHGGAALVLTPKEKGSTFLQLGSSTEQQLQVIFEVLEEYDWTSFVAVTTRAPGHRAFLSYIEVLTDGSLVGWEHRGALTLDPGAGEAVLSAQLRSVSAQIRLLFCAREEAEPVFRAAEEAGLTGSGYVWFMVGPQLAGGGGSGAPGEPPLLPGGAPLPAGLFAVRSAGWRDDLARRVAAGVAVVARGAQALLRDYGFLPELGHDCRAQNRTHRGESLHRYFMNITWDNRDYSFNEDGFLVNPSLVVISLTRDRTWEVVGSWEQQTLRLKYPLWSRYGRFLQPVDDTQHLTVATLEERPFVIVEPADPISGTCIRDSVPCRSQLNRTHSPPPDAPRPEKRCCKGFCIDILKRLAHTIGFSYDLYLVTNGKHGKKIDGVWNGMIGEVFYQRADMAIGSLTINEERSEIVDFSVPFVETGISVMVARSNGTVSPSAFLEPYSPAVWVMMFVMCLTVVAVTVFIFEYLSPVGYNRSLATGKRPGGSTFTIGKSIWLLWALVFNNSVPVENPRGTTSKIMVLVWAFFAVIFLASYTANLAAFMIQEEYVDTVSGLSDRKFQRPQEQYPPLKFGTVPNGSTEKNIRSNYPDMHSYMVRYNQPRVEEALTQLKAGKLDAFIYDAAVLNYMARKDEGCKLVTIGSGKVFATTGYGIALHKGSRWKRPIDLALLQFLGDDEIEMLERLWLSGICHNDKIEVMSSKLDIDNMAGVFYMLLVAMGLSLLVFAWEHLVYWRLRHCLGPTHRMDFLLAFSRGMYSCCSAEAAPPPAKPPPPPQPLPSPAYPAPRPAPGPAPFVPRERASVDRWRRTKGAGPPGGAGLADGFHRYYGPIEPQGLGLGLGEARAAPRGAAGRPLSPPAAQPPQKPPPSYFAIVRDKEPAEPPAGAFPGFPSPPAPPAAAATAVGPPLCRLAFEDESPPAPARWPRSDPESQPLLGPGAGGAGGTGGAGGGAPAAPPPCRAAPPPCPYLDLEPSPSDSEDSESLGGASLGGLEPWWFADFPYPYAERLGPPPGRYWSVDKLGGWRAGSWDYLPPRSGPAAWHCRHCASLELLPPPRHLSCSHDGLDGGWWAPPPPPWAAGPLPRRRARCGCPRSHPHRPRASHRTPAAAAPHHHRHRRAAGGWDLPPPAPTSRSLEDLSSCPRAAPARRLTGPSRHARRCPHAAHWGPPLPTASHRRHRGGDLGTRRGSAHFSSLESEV
- ASSAY SUMMARY: cell-based
ASSAY METRIC: pEC50
The quantity pEC50 is defined as the negative base-10 logarithm of the molar concentration.

# MOLECULE, pEC50
measured = [
    ("NCC(=O)O [glycine]", 6.92),
]

Pending molecule:
Input: Please supply the value of reported pEC50 for the item CN[C@H](CC(=O)O)C(=O)O [NMDA, N-methyl-D-aspartate]
Output: 5.17

* * *

- TARGET: rat GluN1/GluN2A (Rattus norvegicus, UniProt P35439+Q00959)
- ASSAY SUMMARY: Two-electrode voltage-clamp recordings, recombinant receptors in Xenopus oocytes
- RECORDED CONDITIONS: rat GluN1/GluN2A; continuous presence of 30 µM glycine; -40 mV
ASSAY METRIC: EC50 (µM)
Lab book: enter the figure in µM, no units written.

Input: Please supply the value of reported EC50 for the item CN[C@H](CC(=O)O)C(=O)O [NMDA, N-methyl-D-aspartate]
Output: 71

* * *

Reported nH (Hill slope, inhibition) values for the following molecules.
- TARGET: rat GluN1/GluN2B (Rattus norvegicus, UniProt P35439+Q00960)
- ASSAY SUMMARY: cell-based
- Type: cell-based
- RECORDED CONDITIONS: rat GluN1/GluN2B; 100 µM glutamate plus 30 µM glycine; -40 mV
Counter-ions that a name gives are not always drawn.
Respond using a number only.

# MOLECULE, MEASUREMENT
measured = [
    ("CN[C@]1(c2ccccc2Cl)CCCCC1=O [(+)ketamine, S-(+)-ketamine hydrochloride]", 0.9),
    ("OC(CN1CCC(Cc2ccc(F)cc2)CC1)c1ccc(Cl)cc1 (stereo not shown)", 1.2),
]

Input: Please supply the value of reported nH (Hill slope, inhibition) for the item CC(C(O)c1ccc(O)cc1)N1CCC(Cc2ccccc2)CC1 (stereo not shown)
Output: 1.2

Input: Please supply the value of reported nH (Hill slope, inhibition) for the item NC(=NCc1ccc(Cl)cc1)SCCCc1cnc[nH]1
Output: 1.3

* * *

- TARGET: human GluN1/GluN2C (Homo sapiens, UniProt Q05586+Q14957, INS1047EPP)
- ASSAY SUMMARY: cell-based
Reported EC50 values for the following molecules.
Lab book: enter the figure in µM, no units written.

# MOLECULE, MEASUREMENT
data = [
    ("CN[C@H](CC(=O)O)C(=O)O [NMDA, N-methyl-D-aspartate]", 19),
]

Pending molecule:
Input: Give EC50 for this entry on human GluN1/GluN2C (Homo sapiens, UniProt Q05586+Q14957, INS1047EPP): NCC(=O)O [glycine]
Output: 0.25

* * *

- TARGET: rat GluN1/GluN2B (Rattus norvegicus, UniProt P35439+Q00960)
- ASSAY SUMMARY: cell-based
- RECORDED CONDITIONS: rat GluN1/GluN2B; continuous presence of 30 µM glycine; -40 mV
ASSAY METRIC: pEC50
The quantity pEC50 is defined as the negative base-10 logarithm of the molar concentration.

Input: Please supply the value of reported pEC50 for the item CN[C@H](CC(=O)O)C(=O)O [NMDA, N-methyl-D-aspartate]
Output: 4.68

* * *

- TARGET: human GluN1/GluN2B (Homo sapiens, UniProt Q05586+Q13224)
- ASSAY SUMMARY: cell-based
- Assay type: cell-based
- RECORDED CONDITIONS: human GluN1/GluN2B; 100 µM glutamate plus 30 µM glycine; -40 mV
Structures can show the parent of a compound that is named as a salt.
ASSAY METRIC: nH (Hill slope, inhibition)

Example results:
# COMPOUND, TARGET, nH (Hill slope, inhibition)
measured = [
    ("CN[C@]1(c2ccccc2Cl)CCCCC1=O [(+)ketamine, S-(+)-ketamine hydrochloride]", "human GluN1/GluN2B (Homo sapiens, UniProt Q05586+Q13224)", 1.0),
    ("NC(=NCc1ccc(Cl)cc1)SCCCc1cnc[nH]1", "human GluN1/GluN2B (Homo sapiens, UniProt Q05586+Q13224)", 1.0),
    ("CC(C(O)c1ccc(O)cc1)N1CCC(Cc2ccccc2)CC1 (stereo not shown)", "human GluN1/GluN2B (Homo sapiens, UniProt Q05586+Q13224)", 1.1),
]

Pending compound:
Input: Please supply the value of reported nH (Hill slope, inhibition) for the item CC12CC3CC(C)(C1)CC(N)(C3)C2 [memantine, memantine hydrochloride]
Output: 1.0

# credit: paper PMC3335988
